The following binders are listed with their measured pSTAT3 (MFI) in CD4 T cells at 100 µM values.
Biological target: T1, IL10Rα and IL2Rγ on human primary cells (CD8 T cells, CD4 T cells, monocytes) (human) (UniProt Q13651)
T1 sequence (looked up) 1: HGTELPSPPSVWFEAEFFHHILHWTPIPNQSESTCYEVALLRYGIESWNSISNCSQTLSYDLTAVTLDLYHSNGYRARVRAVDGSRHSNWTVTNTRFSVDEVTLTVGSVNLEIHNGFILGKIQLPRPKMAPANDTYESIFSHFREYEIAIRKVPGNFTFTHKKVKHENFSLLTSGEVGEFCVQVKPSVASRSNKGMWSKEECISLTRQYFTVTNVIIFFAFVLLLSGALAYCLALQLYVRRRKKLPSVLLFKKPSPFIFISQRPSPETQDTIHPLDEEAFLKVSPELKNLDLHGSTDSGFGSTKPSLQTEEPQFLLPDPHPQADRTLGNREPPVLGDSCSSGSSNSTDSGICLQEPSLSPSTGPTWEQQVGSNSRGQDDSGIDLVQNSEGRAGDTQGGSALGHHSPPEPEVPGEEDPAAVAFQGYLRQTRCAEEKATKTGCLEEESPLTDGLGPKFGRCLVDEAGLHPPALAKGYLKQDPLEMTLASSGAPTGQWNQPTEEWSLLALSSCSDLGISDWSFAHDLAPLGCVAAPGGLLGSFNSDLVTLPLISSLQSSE
T1 sequence (looked up) 2: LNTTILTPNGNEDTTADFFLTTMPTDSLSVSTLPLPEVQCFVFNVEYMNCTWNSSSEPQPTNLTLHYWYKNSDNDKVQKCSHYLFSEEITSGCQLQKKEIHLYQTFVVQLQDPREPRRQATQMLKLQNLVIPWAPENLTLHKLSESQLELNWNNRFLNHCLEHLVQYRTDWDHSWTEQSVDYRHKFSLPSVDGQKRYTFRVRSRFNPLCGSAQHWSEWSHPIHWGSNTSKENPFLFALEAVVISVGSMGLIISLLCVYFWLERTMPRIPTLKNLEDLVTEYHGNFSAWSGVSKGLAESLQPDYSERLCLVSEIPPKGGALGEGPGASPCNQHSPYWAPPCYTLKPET
Assay: cell-based or functional assay
Please give a number only; it is taken to be in MFI.

Observe how each entry below is paired with its result.
BINDER | UNIT INFO | pSTAT3 (MFI) in CD4 T cells at 100 µM
hIL10Ra_VHH14-hIL2Rg_VHH19, linker …, tag his (bispecific antibody, not shown: small tags and cut ends) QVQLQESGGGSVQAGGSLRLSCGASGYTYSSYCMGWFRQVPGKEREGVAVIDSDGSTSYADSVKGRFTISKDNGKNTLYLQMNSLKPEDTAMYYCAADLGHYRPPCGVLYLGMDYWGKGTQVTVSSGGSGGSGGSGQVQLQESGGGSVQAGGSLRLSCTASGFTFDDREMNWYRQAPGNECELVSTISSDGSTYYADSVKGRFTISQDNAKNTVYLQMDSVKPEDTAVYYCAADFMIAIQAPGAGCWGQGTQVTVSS | MFI | 10300
hIL10Ra_VHH14-hIL2Rg_VHH19, linker GGGSGGGS, tag his (bispecific antibody, not shown: small tags and cut ends) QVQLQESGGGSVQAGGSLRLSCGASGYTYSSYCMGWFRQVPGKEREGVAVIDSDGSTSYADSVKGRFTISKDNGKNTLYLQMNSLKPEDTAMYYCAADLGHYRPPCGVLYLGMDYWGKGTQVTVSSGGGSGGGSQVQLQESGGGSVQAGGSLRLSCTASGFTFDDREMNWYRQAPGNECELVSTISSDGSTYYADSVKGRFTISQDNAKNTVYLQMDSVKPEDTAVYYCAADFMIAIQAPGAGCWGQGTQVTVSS | MFI | 11600
hIL10Ra_VHH14-hIL2Rg_VHH19, linker GGGS, tag his (bispecific antibody, not shown: small tags and cut ends) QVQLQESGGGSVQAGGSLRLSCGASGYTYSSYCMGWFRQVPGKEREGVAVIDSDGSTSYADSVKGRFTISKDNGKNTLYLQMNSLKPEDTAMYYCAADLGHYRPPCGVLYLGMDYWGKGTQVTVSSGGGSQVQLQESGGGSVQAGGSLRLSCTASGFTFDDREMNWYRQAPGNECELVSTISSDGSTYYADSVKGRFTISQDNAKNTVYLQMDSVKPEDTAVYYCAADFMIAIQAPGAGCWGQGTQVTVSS | MFI | 14700

Challenge: Query: pSTAT3 (MFI) in CD4 T cells at 100 µM; subject: hIL10Ra_VHH14-hIL2Rg_VHH19, linker GGGS, tag Fc (Fc fusion, not shown: a dimerising Fc or GST) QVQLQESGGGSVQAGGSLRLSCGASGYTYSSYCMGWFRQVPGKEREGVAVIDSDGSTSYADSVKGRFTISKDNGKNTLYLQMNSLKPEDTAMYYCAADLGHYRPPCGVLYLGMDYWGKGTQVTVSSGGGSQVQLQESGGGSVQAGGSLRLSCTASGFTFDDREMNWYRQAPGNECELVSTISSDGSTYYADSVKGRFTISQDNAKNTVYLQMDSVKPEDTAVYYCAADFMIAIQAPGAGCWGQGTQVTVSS
Response given: 16000
